# Experimental system: human TLR4 (Homo sapiens, UniProt O00206+Q9Y6Y9)
# Construct: host or cells: HEK293 (HEK Blue) cells with NFκB/SEAP reporter
# Sequence (O00206 24-839): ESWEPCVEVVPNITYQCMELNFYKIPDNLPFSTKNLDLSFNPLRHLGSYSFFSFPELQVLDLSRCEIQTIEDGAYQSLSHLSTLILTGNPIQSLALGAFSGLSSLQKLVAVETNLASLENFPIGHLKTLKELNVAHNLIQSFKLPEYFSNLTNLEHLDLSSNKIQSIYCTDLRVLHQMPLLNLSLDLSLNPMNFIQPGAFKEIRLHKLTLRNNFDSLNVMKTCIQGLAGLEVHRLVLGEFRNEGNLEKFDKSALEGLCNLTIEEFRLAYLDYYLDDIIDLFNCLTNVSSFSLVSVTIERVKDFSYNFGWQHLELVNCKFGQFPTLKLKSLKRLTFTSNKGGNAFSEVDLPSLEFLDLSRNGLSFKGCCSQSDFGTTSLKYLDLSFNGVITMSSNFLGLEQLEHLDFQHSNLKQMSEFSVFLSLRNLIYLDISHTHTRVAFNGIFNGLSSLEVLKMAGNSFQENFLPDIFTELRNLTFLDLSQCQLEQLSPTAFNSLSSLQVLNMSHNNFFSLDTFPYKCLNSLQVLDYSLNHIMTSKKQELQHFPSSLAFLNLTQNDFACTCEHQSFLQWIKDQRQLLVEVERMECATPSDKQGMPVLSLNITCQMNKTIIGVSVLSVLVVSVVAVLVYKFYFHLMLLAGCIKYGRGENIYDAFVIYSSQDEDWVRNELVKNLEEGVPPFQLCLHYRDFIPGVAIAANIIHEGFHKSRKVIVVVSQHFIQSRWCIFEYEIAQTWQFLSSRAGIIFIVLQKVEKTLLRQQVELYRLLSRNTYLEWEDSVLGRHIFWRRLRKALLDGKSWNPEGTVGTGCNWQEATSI
# Sequence (Q9Y6Y9 19-160): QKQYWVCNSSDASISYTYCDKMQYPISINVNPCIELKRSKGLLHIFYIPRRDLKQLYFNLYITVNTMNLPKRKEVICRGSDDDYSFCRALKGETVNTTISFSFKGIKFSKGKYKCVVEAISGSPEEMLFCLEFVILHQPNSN
# Assay name: Human TLR4 HEK Blue NFκB/SEAP reporter assay
# Format: cell-based
# Stated conditions: hTLR4 HEK293 transfectoma; all compounds tested at 10 μM; Cmpd 1 set at 100
# Procedure: The above assays were utilized to compare the derivatives of the lead pyrimidoindole for their ability to activate mouse and human TLR4. […] Each cytokine induction curve was first converted to a percent activity curve, and then the AUC of the percent activity curve was calculated. The process of converting to a percent activity curve allowed subtracting background and adjusting for plate-to-plate variation. The culture supernatants were harvested after a 20-24 h incubation period. […]
Attribute: human TLR4, values normalized to Cmpd 1
// print number alone

Here are 5 molecules together with their reported answers.
molecule=CCCCCn1c2ccccc2c2nc(SCC(=O)NC3CCCCC3)n(-c3ccccc3)c(=O)c21 outcome_measure="human TLR4, values normalized to Cmpd 1" recorded_number=11
molecule=O=C(CSc1nc2c([nH]c3ccccc32)c(=O)n1-c1ccccc1)NC1CCCCCC1 outcome_measure="human TLR4, values normalized to Cmpd 1" recorded_number=100
molecule=CCCCCCNC(=O)CSc1nc2c([nH]c3ccccc32)c(=O)n1-c1ccccc1 outcome_measure="human TLR4, values normalized to Cmpd 1" recorded_number=8
molecule=CC(C)(C)CCNC(=O)CSc1nc2c([nH]c3ccccc32)c(=O)n1-c1ccccc1 outcome_measure="human TLR4, values normalized to Cmpd 1" recorded_number=72
molecule=O=C(CSc1nc2c([nH]c3ccccc32)c(=O)n1-c1ccccc1)NC1CCCCC1 outcome_measure="human TLR4, values normalized to Cmpd 1" recorded_number=100

What the record says about NC(=O)Cn1c2ccccc2c2nc(SCC(=O)NC3CCCCC3)n(-c3ccccc3)c(=O)c21 : human TLR4, values normalized to Cmpd 1 is 11

In plain terms, O=C(CSc1nc2c([nH]c3ccccc32)c(=O)n1CCc1ccccc1)NC1CCCCC1 has a documented human TLR4, values normalized to Cmpd 1 of 1

Input O=C(CSc1nc2c([nH]c3ccccc32)c(=O)n1C1CCCCC1)NC1CCCC1 . Output human TLR4, values normalized to Cmpd 1: 33

Input O=C(CSc1nc2c([nH]c3ccccc32)c(=O)n1-c1ccccc1)NCC1CCCO1 (stereo not shown) . Output human TLR4, values normalized to Cmpd 1: 13

Record CCC(C)CCNC(=O)CSc1nc2c([nH]c3ccccc32)c(=O)n1-c1ccccc1 (stereo not shown) , field human TLR4, values normalized to Cmpd 1: 17

Record summary for O=C(CSc1nc2c([nH]c3ccccc32)c(=O)n1-c1ccccc1)Nc1nccs1 : reported human TLR4, values normalized to Cmpd 1 = 12

Lookup result for O=C(CSc1nc2c([nH]c3ccccc32)c(=O)n1-c1ccccc1)NCc1ccco1 ; measured human TLR4, values normalized to Cmpd 1: 27

human TLR4, values normalized to Cmpd 1 reading for COC(=O)CCCn1c2ccccc2c2nc(SCC(=O)NC3CCCCC3)n(-c3ccccc3)c(=O)c21 : 19
